TARGET_SYSTEM: T1, Histidine-tagged human 4-1BB protein (h4-1BB-His) (human, UniProt Q07011 24-186)
T1 construct: not shown: histidine tag
TEST_DESCRIPTION: SPR (Biacore T200), antibody on Protein A chip, h4-1BB-His injected;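 further: dissociation phase followed for 300 s, Kd derived as koff divided by kon from the kinetic fit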
Each entry gets No if its koff stays under 0.003 s⁻¹, and Yes if its koff is 0.003 s⁻¹ or above.

Would you please look over these solved cases?
{"BINDER": "29-6A5-mHvKv-IgG2 (antibody, V domains shown) VH: QVQLQQPGAELVRPGASVKLSCKASGYTFSSYWINWVKQRPGQGLEWIGNIYPSDSYTNYNQKFKDKATLTVDKSSSTAYMQLSSPTSDDSAVYYCTRTWEFYYDSVFDYWGQGTTLTVSS VL: DIKMTQSPSSMYASLGERVTITCKASQDINSYLSWFQQKPGKSPKTLIYRANRLVDGVPSRFSGSGSGQDYSLTISSLEYEDMGIYYCLQYDELPPTFGGGTKLEIK", "DISCRETE_LABEL": "No"}
{"BINDER": "59-5E4-mHvKv-IgG2 (antibody, V domains shown) VH: QVQLQQPGAELVRPGASVKLSCKASGYTFTTYWINWVRQRPGQGLEWIGNIYPSDSYTNYNQKFKDKASLTVDKSSNTAYMQLSSPTSEDSAVYYCAREAGDGTHYYAIDYWGQGTSVTVSS VL: NIVMTQSPKSMSMSVGERVTLSCKASENVGTYVSWYQQKPEQSPKLLIYGASNRYPGVPDRFTGSGSATDFTLTISSLQAEDLADYHCGQGYSYLRTFGGGTNLEIK", "DISCRETE_LABEL": "No"}
{"BINDER": "45-7G9-mHvKv-IgG2 (antibody, V domains shown) VH: QVQLQQPGSALVRPGASVKLSCKASGYTFSNYWIHWVKQRHGQGLEWIGNIYPASDYTNYDEKFKNKGTLTVDTSSSTAYMHLSSLTSEDSAVYYCSRGYFGSLDYWGQGTSVTVSA VL: DILLTQSPAILSVNPGERVSFSCRASQPIGTGIHWYQQRTNGSPRLLIKSASESISGIPSRFSGSGSGTDFTLTINNVESDDVGDYYCQQSYSWPTTFGGGTKLKIN", "DISCRETE_LABEL": "Yes"}

-- ask For this binder, is measured koff 0.003 s⁻¹ or higher? 5F9-H3K4-IgG4 (antibody, V domains shown, humanized) VH: QVQLKESGPGLVKPSETLSITCTVSGFSLTTYDISWVRQPPGKGLEWLGVIWTGGGTNYNSSFMSRVTISKDNSKNQVSLKLSSVTAADTAIYYCERVDYWGQGTTLTVSS VL: DVVMTQSPLSLPVTLGDPASISCRSSQSLVHSNGNTYLHWYLQRPGQSPKLLIYKVSNRFSGVPDRFSGSGSGTAFTFKISRVEAEDVGVYYCSQNTHVPWTFGGGTKLEIK
-- reply No
